Can you tell me glycan array binding signal (z-score) for the items I'm about to list?
- assay-target: Fuc(a1-2)Gal(b1-3)GalNAc(a1-3)[Fuc(a1-2)]Gal(b1-4)GlcNAc
- method: glycan array binding signal (z-score within array); higher = stronger binding
- run-conditions: glycan notation: IUPAC condensed, linker removed
The entries come from a sample that favours the strongest signals as a whole.
// no unit string in output, number only

Inquiry: Indicate the recorded glycan array binding signal (z-score) value for this binder: Clec12b (Mus musculus), Q149M0 (protein) MSDEVTYATLMLQDSARVRGNQDGNNLRKEGHPAQSSLWRGAALSLMTLCLVLVTGLVTLATMFLQVSNDINSDSEKLSQLQKSIHPQQDNLSESLNSSRKSLTEESLQSQISALLERQEQMATKLCKEFLIHASDHKCNPCPKTWQWYGNSCYYFSINEEKSWSDSRKDCIDKNATLVKIDSTEERDLLQSQLSLTFSFFWLGLSWNSSGRNWLWEDGSFPPPTLFSDKELASFNGSRDCAYFERGNIYASRCSAEIPWICEKTASLVKTEDLD
Reply text: 0.211

Inquiry: Indicate the recorded glycan array binding signal (z-score) value for this binder: Threefoil (Haloarcula marismortui) (protein) GSSHHHHHHHHHHSSGLVPRGSHMGDGYYKLVARHSGKALDVENASTSDGANVIQYSYSGGDNQQWRLVDLGDGYYKLVARHSGKALDVENASTSDGANVIQYSYSGGDNQQWRLVDLGDGYYKLVARHSGKALDVENASTSDGANVIQYSYSGGDNQQWRLVDL
Reply text: -0.165

Inquiry: Indicate the recorded glycan array binding signal (z-score) value for this binder: Nc3LysM-2 (protein) AHVLQARQSVSCDFATAANTGDTCASFAAAWGITEAAFAKLNPGVSCPGNLIAGSEYCVIGTVSTGAPTTTKAATTSTTPPTTTTTTKATTLSTSTTSVSPTGPSPQMPSITSTCNKFYQVQSGDGCWSIEQAQGVSASDFMAWNKAVDAQCDNLWLGYYVCVGVKGGSSPPPTTTTKPASSSAPTPQMPNTVSNCKKFHKVVSGDGCWAIEQAAGISASDFAKWNPYVDAACDNLWLGYYVCIGV
Reply text: -0.746
